# Test system: A. baumannii ATCC19606
# experimentalContext: Table S2; […] MH, pH 7.4
# Text: […]
Where a SMILES comes first, the peptide text is derived from it. [ ]: non-standard residue; d: D form. Nlys = NCCCCNCC(=O)O
readout: MIC A. baumannii ATCC19606 […] 7.4 (mg/L)
Give the value, in units of mg/L, as a plain number.

Given the molecule CC(C)C[C@H](NC(=O)[C@H](CC(C)C)NC(=O)[C@H](CC(C)C)NC(=O)[C@H](CCCCN)NC(=O)[C@H](CC(C)C)NC(=O)[C@H](CC(C)C)NC(=O)CN(CCCCN)C(=O)[C@H](CC(C)C)NC(=O)[C@H](CC(C)C)NC(=O)CN(CCCCN)C(=O)CNCCCCN)C(N)=O [EB6, kkLLkLLKLLL] (H-[Nlys][Nlys]LL[Nlys]LLKLLL-NH2) , what is its reported MIC A. baumannii ATCC19606 […] 7.4? 2

---

# testDetails: Circular dichroism, α-helical content
# Format: physicochemical
# experimentalContext: Table S2; 0.1 mg/mL, 10 mM phosphate buffer pH 7.4, 20% TFE
Where a SMILES comes first, the peptide text is derived from it. [ ]: non-standard residue; d: D form. Nleu = CC(C)CNCC(=O)O; Nlys = NCCCCNCC(=O)O
readout: CD %α with 20% TFE

- compound: "CC(C)C[C@H](NC(=O)CN(CC(C)C)C(=O)[C@H](CCCCN)NC(=O)CNCCCCN)C(=O)N(CCCCN)CC(=O)N[C@@H](CC(C)C)C(=O)N(CC(=O)N[C@@H](CCCCN)C(=O)N(CC(=O)N[C@@H](CC(C)C)C(=O)N(CC(N)=O)CC(C)C)CC(C)C)CC(C)C [EB10, kKlLkLlKlLl] (H-[Nlys]K[Nleu]L[Nlys]L[Nleu]K[Nleu]L[Nleu]-NH2)"
  CD %α with 20% TFE: "11%"
- compound: "CC(C)C[C@H](NC(=O)[C@H](CC(C)C)NC(=O)[C@H](CC(C)C)NC(=O)[C@@H](CCCCN)NC(=O)[C@H](CC(C)C)NC(=O)[C@H](CC(C)C)NC(=O)[C@@H](CCCCN)NC(=O)[C@H](CC(C)C)NC(=O)[C@H](CC(C)C)NC(=O)[C@@H](CCCCN)NC(=O)[C@H](N)CCCCN)C(N)=O [ln69, kkLLkLLkLLL, reference compound] (H-[dK][dK]LL[dK]LL[dK]LLL-NH2)"
  CD %α with 20% TFE: "34%"
- compound: "CC(C)C[C@H](NC(=O)CN(CCCCN)C(=O)[C@H](CC(C)C)NC(=O)[C@H](CC(C)C)NC(=O)[C@H](CCCCN)NC(=O)[C@H](CC(C)C)NC(=O)[C@H](CC(C)C)NC(=O)[C@H](CCCCN)NC(=O)CNCCCCN)C(=O)N[C@@H](CC(C)C)C(=O)N(CC(N)=O)CC(C)C [EB2, kKLLKLLkLLl] (H-[Nlys]KLLKLL[Nlys]LL[Nleu]-NH2)"
  CD %α with 20% TFE: "15%"
- compound: "CC(C)C[C@H](NC(=O)[C@H](CC(C)C)NC(=O)[C@H](CCCCN)NC(=O)[C@@H](N)CCCCN)C(=O)N[C@@H](CCCCN)C(=O)N[C@@H](CC(C)C)C(=O)N[C@@H](CC(C)C)C(=O)N[C@@H](CCCCN)C(=O)N(CC(=O)N(CC(=O)N(CC(N)=O)CC(C)C)CC(C)C)CC(C)C [EB3] (H-KKLLKLLK[Nleu][Nleu][Nleu]-NH2)"
  CD %α with 20% TFE: "15%"
- compound: "CC(C)CN(CC(N)=O)C(=O)CN(CC(C)C)C(=O)CN(CC(C)C)C(=O)CN(CCCCN)C(=O)CN(CC(C)C)C(=O)CN(CC(C)C)C(=O)CN(CCCCN)C(=O)CN(CC(C)C)C(=O)CN(CC(C)C)C(=O)CN(CCCCN)C(=O)CNCCCCN [EB11, kkllkllklll] (H-[Nlys][Nlys][Nleu][Nleu][Nlys][Nleu][Nleu][Nlys][Nleu][Nleu][Nleu]-NH2)"
  CD %α with 20% TFE: "8%"

Given the compound CC(C)C[C@H](NC(=O)[C@H](CC(C)C)NC(=O)[C@H](CC(C)C)NC(=O)[C@H](CCCCN)NC(=O)[C@H](CC(C)C)NC(=O)[C@H](CC(C)C)NC(=O)CN(CCCCN)C(=O)[C@H](CC(C)C)NC(=O)[C@H](CC(C)C)NC(=O)CN(CCCCN)C(=O)CNCCCCN)C(N)=O [EB6, kkLLkLLKLLL] (H-[Nlys][Nlys]LL[Nlys]LLKLLL-NH2) , what is its reported CD %α with 20% TFE? 35%

What do you get for CC(C)C[C@H](NC(=O)[C@H](CCCCN)NC(=O)[C@@H](N)CCCCN)C(=O)N[C@@H](CC(C)C)C(=O)N[C@@H](CCCCN)C(=O)N(CC(=O)N(CC(=O)N(CCCCN)CC(=O)N(CC(=O)N(CC(=O)N(CC(N)=O)CC(C)C)CC(C)C)CC(C)C)CC(C)C)CC(C)C [EB4, KKLLKllklll] (H-KKLLK[Nleu][Nleu][Nlys][Nleu][Nleu][Nleu]-NH2) ? 11%

What do you get for CC(C)C[C@H](NC(=O)[C@H](CCCCN)NC(=O)CNCCCCN)C(=O)N[C@@H](CC(C)C)C(=O)N[C@@H](CCCCN)C(=O)N[C@@H](CC(C)C)C(=O)N[C@@H](CC(C)C)C(=O)N[C@@H](CCCCN)C(=O)N[C@@H](CC(C)C)C(=O)N[C@@H](CC(C)C)C(=O)N(CC(N)=O)CC(C)C [EB1] (H-[Nlys]KLLKLLKLL[Nleu]-NH2; N-terminus assumed) ? 26%

What do you get for CC(C)C[C@H](NC(=O)CN(CC(C)C)C(=O)[C@H](CC(C)C)NC(=O)CN(CCCCN)C(=O)[C@H](CC(C)C)NC(=O)CN(CC(C)C)C(=O)[C@H](CCCCN)NC(=O)CN(CC(C)C)C(=O)[C@H](CC(C)C)NC(=O)CN(CCCCN)C(=O)[C@@H](N)CCCCN)C(N)=O [EB9, KkLlKlLkLlL] (H-K[Nlys]L[Nleu]K[Nleu]L[Nlys]L[Nleu]L-NH2) ? 13%

---

# Test system: E. coli W3110
# experimentalContext: Table S2; […] MH, pH 8.5
Where a SMILES comes first, the peptide text is derived from it. [ ]: non-standard residue; d: D form. Nleu = CC(C)CNCC(=O)O; Nlys = NCCCCNCC(=O)O
Property: MIC E. coli W3110 […] 8.5; scope: individual compounds

Examples with their reported MIC E. coli W3110 […] 8.5 follow.
- compound: "CC(C)C[C@H](NC(=O)[C@H](CC(C)C)NC(=O)[C@H](CCCCN)NC(=O)[C@@H](N)CCCCN)C(=O)N[C@@H](CCCCN)C(=O)N[C@@H](CC(C)C)C(=O)N[C@@H](CC(C)C)C(=O)N[C@@H](CCCCN)C(=O)N(CC(=O)N(CC(=O)N(CC(N)=O)CC(C)C)CC(C)C)CC(C)C [EB3] (H-KKLLKLLK[Nleu][Nleu][Nleu]-NH2)"
  MIC E. coli W3110 […] 8.5: "2 to 4 µg/mL"
- compound: "CC(C)C[C@H](NC(=O)CN(CC(C)C)C(=O)[C@H](CC(C)C)NC(=O)CN(CCCCN)C(=O)[C@H](CC(C)C)NC(=O)CN(CC(C)C)C(=O)[C@H](CCCCN)NC(=O)CN(CC(C)C)C(=O)[C@H](CC(C)C)NC(=O)CN(CCCCN)C(=O)[C@@H](N)CCCCN)C(N)=O [EB9, KkLlKlLkLlL] (H-K[Nlys]L[Nleu]K[Nleu]L[Nlys]L[Nleu]L-NH2)"
  MIC E. coli W3110 […] 8.5: "2 µg/mL"

Alright, here's another compound for you.
Given the compound CC(C)C[C@H](NC(=O)CN(CC(C)C)C(=O)[C@H](CCCCN)NC(=O)CNCCCCN)C(=O)N(CCCCN)CC(=O)N[C@@H](CC(C)C)C(=O)N(CC(=O)N[C@@H](CCCCN)C(=O)N(CC(=O)N[C@@H](CC(C)C)C(=O)N(CC(N)=O)CC(C)C)CC(C)C)CC(C)C [EB10, kKlLkLlKlLl] (H-[Nlys]K[Nleu]L[Nlys]L[Nleu]K[Nleu]L[Nleu]-NH2) , what is its reported MIC E. coli W3110 […] 8.5? 2 to 4 µg/mL

---

Property: CD %α with 20% TFE; scope: individual molecules
# testDetails: Circular dichroism, α-helical content
# Type: physicochemical
# experimentalContext: 0.1 mg/mL, 10 mM phosphate buffer pH 7.4, 20% TFE; DichroWeb, Contin-LL
Where a SMILES comes first, the peptide text is derived from it. [ ]: non-standard residue; d: D form. Nleu = CC(C)CNCC(=O)O; Nlys = NCCCCNCC(=O)O
Give the value, in units of %, as a plain number.

Examples with their reported CD %α with 20% TFE follow.
- molecule: "CC(C)CN(CC(N)=O)C(=O)CN(CC(C)C)C(=O)CN(CC(C)C)C(=O)CN(CCCCN)C(=O)CN(CC(C)C)C(=O)CN(CC(C)C)C(=O)CN(CCCCN)C(=O)CN(CC(C)C)C(=O)CN(CC(C)C)C(=O)CN(CCCCN)C(=O)CNCCCCN [EB11, kkllkllklll] (H-[Nlys][Nlys][Nleu][Nleu][Nlys][Nleu][Nleu][Nlys][Nleu][Nleu][Nleu]-NH2)"
  readout: "CD %α with 20% TFE"
  recordedValue: 8
- molecule: "CC(C)C[C@H](NC(=O)[C@H](CC(C)C)NC(=O)[C@H](CCCCN)NC(=O)[C@@H](N)CCCCN)C(=O)N[C@@H](CCCCN)C(=O)N[C@@H](CC(C)C)C(=O)N[C@@H](CC(C)C)C(=O)N[C@@H](CCCCN)C(=O)N(CC(=O)N(CC(=O)N(CC(N)=O)CC(C)C)CC(C)C)CC(C)C [EB3] (H-KKLLKLLK[Nleu][Nleu][Nleu]-NH2)"
  readout: "CD %α with 20% TFE"
  recordedValue: 15
- molecule: "CC(C)C[C@H](NC(=O)[C@H](CC(C)C)NC(=O)[C@H](CC(C)C)NC(=O)[C@H](CCCCN)NC(=O)[C@H](CC(C)C)NC(=O)[C@H](CC(C)C)NC(=O)CN(CCCCN)C(=O)[C@H](CC(C)C)NC(=O)[C@H](CC(C)C)NC(=O)CN(CCCCN)C(=O)CNCCCCN)C(N)=O [EB6, kkLLkLLKLLL] (H-[Nlys][Nlys]LL[Nlys]LLKLLL-NH2)"
  readout: "CD %α with 20% TFE"
  recordedValue: 35
- molecule: "CC(C)C[C@H](NC(=O)[C@H](CCCCN)NC(=O)CNCCCCN)C(=O)N[C@@H](CC(C)C)C(=O)N[C@@H](CCCCN)C(=O)N[C@@H](CC(C)C)C(=O)N[C@@H](CC(C)C)C(=O)N[C@@H](CCCCN)C(=O)N[C@@H](CC(C)C)C(=O)N[C@@H](CC(C)C)C(=O)N(CC(N)=O)CC(C)C [EB1] (H-[Nlys]KLLKLLKLL[Nleu]-NH2; N-terminus assumed)"
  readout: "CD %α with 20% TFE"
  recordedValue: 26

Alright, here's another molecule for you.
Given the molecule CC(C)C[C@H](NC(=O)[C@H](CCCCN)NC(=O)[C@@H](N)CCCCN)C(=O)N[C@@H](CC(C)C)C(=O)N[C@@H](CCCCN)C(=O)N(CC(=O)N(CC(=O)N(CCCCN)CC(=O)N(CC(=O)N(CC(=O)N(CC(N)=O)CC(C)C)CC(C)C)CC(C)C)CC(C)C)CC(C)C [EB4, KKLLKllklll] (H-KKLLK[Nleu][Nleu][Nlys][Nleu][Nleu][Nleu]-NH2) , what is its reported CD %α with 20% TFE? 11

Values were extracted from paper PMC10714400.
